Recorded values, source patent US20260125454A1.

Field: Relative binding activity, %. Provide a value for each of the binders that follow.
- study-system: T1, Biotin-huCGRPaSA (human, not fully specified; biotin (position not given))
- T1 construct: exact construct ('aSA') not explained; also called Biotin CGRPaSA; full-length (1-37) CGRP
- T1 peptide: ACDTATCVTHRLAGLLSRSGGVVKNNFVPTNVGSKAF
- experiment: ELISA, supernatant; relative to chimeric C245
Please state the value followed by its unit.

Incoming: Look at this binder and give its reported Relative binding activity, %. hu180 (antibody, V domains shown, 3E5 HC-3/3E5 LC-1) VH: QVQLVQSGAEVKKPGASVKVSCKASGYTFTDYNMHWVRQAPGQGLEWMGYISPYNGGTAYNQKFKFRVTLTVDTSSSTAYMELSRLRSDDTVVYYCAREGLGGYWGQGTLVTVSS VL: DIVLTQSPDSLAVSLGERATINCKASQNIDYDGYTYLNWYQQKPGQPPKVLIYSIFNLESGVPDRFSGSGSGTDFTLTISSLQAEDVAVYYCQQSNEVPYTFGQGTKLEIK
Outgoing: 87%

Incoming: Then this binder: hu177 (antibody, V domains shown, 3E5 HC-3/1F5 LC1-4) VH: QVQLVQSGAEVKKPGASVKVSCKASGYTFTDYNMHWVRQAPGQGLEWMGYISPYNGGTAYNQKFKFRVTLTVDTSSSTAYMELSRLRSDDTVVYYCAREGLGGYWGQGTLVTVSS VL: DIVLTQSPDSLAVSLGERATINCKASQNIDFDGYAYMNWYQHKPGQPPKVLIYSVFNLESGVPDRFSGSGSGTDFTLTISSLQAEDVAVYYCQQSHEVPYTFGQGTKLEIK
Outgoing: 25%

Incoming: Would you kindly repeat that for hu182 (antibody, V domains shown, 3E5 HC-3/3H10 LC2-2) VH: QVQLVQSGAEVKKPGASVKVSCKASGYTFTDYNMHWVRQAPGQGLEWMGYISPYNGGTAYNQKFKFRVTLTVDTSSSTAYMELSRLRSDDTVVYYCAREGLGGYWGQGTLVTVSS VL: DIQLTQSPSSLSASVGDRVTITCKASQNIDYGGYSYMNWYQQKPGKAPKVLIYSVFNLESGVPSRFSGSGSGTDFTLTISSLQPEDFATYYCQQSNEAPYTFGQGTKLEIK ?
Outgoing: 31%
